# Tested System: PPARδ (Homo sapiens)
# Experiment Description: Transfection assay (luciferase reporter) in CV-1 cells, PPARδ
# Type: cell-based
# Set-up: full-length PPARs plasmid DNA; expressed in transfected cells; host or cells: CV-1 cells
# Assay Setup: full-length PPAR plasmid, luciferase normalized with β-galactosidase
Binary label based on EC50 with cut-off 10 nM: below gives T, not below gives F.

{"columns": ["Molecule", "Tested System", "Category Label"],
 "data": [
  ["Cc1cc(SC(Cc2cc(F)ccc2Cl)c2sc(-c3ccc(C(F)(F)F)c(F)c3)nc2C)ccc1OCC(=O)O (stereo not shown)", "PPARδ (Homo sapiens)", "F"],
  ["Cc1cc(SC(CCc2ccccc2)c2sc(-c3ccc(C(F)(F)F)cc3)nc2C)ccc1OCC(=O)O (stereo not shown)", "PPARδ (Homo sapiens)", "T"],
  ["Cc1cc(SC(Cc2c(F)cccc2F)c2sc(-c3ccc(C(F)(F)F)cc3)nc2C)ccc1OCC(=O)O (stereo not shown)", "PPARδ (Homo sapiens)", "T"],
  ["Cc1cc(SC(Cc2c(F)c(F)c(F)c(F)c2F)c2sc(-c3ccc(C(F)(F)F)cc3)nc2C)ccc1OCC(=O)O (stereo not shown)", "PPARδ (Homo sapiens)", "F"],
  ["Cc1cc(SC(CCCCc2ccccc2)c2sc(-c3ccc(C(F)(F)F)cc3)nc2C)ccc1OCC(=O)O (stereo not shown)", "PPARδ (Homo sapiens)", "F"],
  ["Cc1cc(SC(Cc2ccc(C(F)(F)F)cc2)c2sc(-c3ccc(C(F)(F)F)cc3)nc2C)ccc1OCC(=O)O (stereo not shown)", "PPARδ (Homo sapiens)", "F"],
  ["Cc1cc(SC(Cc2ccc(F)cc2F)c2sc(-c3ccc(C(F)(F)F)c(F)c3)nc2C)ccc1OCC(=O)O (stereo not shown)", "PPARδ (Homo sapiens)", "T"]
]}

----------
EC50 listing for selected molecules.
# Tested System: PPARδ (Homo sapiens)
# Experiment Description: Transfection assay (luciferase reporter) in CV-1 cells, PPARδ
# Format: cell-based
# Parameters: full-length PPARs plasmid DNA; expressed in transfected cells; host or cells: CV-1 cells
# Assay Setup: full-length PPAR plasmid, luciferase normalized with β-galactosidase

{"columns": ["Molecule", "Unit Text", "EC50"],
 "data": [
  ["COc1cc(CC(Sc2ccc(OCC(=O)O)c(C)c2)c2sc(-c3ccc(C(F)(F)F)cc3)nc2C)cc(OC)c1 (stereo not shown)", "nM", 46.4],
  ["Cc1cc(SC(Cc2cc(F)ccc2Cl)c2sc(-c3ccc(C(F)(F)F)cc3)nc2C)ccc1OCC(=O)O (stereo not shown)", "nM", 8.7],
  ["Cc1cc(SC(Cc2c(F)cccc2C(F)(F)F)c2sc(-c3ccc(C(F)(F)F)c(F)c3)nc2C)ccc1OCC(=O)O (stereo not shown)", "nM", 2.6],
  ["CCOC(=O)COc1ccc(SC(Cc2c(F)cccc2Cl)c2sc(-c3ccc(C(F)(F)F)cc3)nc2C)cc1C (stereo not shown)", "nM", 6.5],
  ["Cc1cc(SC(Cc2ccc(C#N)cc2)c2sc(-c3ccc(C(F)(F)F)cc3)nc2C)ccc1OCC(=O)O (stereo not shown)", "nM", 22.1],
  ["Cc1cc(SC(CCCCCCCCCCc2ccccc2)c2sc(-c3ccc(C(F)(F)F)cc3)nc2C)ccc1OCC(=O)O (stereo not shown)", "nM", 132],
  ["Cc1cc(SC(Cc2ccc(Br)cc2)c2sc(-c3ccc(C(F)(F)F)cc3)nc2C)ccc1OCC(=O)O (stereo not shown)", "nM", 11.5]
]}

----------
# Tested System: PPARδ (Homo sapiens, UniProt Q03181)
# Sequence (Q03181 whole entry, species assumed): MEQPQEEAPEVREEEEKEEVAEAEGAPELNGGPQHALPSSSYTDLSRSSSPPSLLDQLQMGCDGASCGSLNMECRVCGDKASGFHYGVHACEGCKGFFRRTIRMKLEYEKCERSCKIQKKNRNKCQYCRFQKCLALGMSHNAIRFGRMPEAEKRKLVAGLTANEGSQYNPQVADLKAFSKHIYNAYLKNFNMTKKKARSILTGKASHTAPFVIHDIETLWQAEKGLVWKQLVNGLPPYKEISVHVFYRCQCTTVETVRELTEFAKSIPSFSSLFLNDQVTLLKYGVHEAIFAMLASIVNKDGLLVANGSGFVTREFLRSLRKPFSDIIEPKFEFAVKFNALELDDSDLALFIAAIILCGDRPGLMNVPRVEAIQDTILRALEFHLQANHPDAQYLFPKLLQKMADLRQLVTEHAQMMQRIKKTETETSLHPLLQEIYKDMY
# Experiment Description: Transfection assay (luciferase reporter) in CV-1 cells, PPARδ
# Type: cell-based
# Set-up: full-length PPARs plasmid DNA; expressed in transfected cells; host or cells: CV-1 cells
# Assay Setup: full-length PPAR plasmid, luciferase normalized with β-galactosidase
pEC50: −log10 of the molar value.
Quantity Measured: pEC50

{"columns": ["Compound", "Reported Value"],
 "data": [
  ["Cc1cc(SC(Cc2c(F)cccc2Cl)c2sc(-c3ccc(C(F)(F)F)cc3)nc2C)ccc1OCC(=O)O (stereo not shown)", 8.68],
  ["Cc1cc(SC(CCCCCCCc2ccccc2)c2sc(-c3ccc(C(F)(F)F)cc3)nc2C)ccc1OCC(=O)O (stereo not shown)", 7.24],
  ["Cc1cc(SC(Cc2c(Cl)cccc2Cl)c2sc(-c3ccc(C(F)(F)F)cc3)nc2C)ccc1OCC(=O)O (stereo not shown)", 8.68],
  ["Cc1cc(SC(Cc2cc(F)c(F)c(F)c2)c2sc(-c3ccc(C(F)(F)F)c(F)c3)nc2C)ccc1OCC(=O)O (stereo not shown)", 7.67],
  ["Cc1cc(SC(CCCc2ccccc2)c2sc(-c3ccc(C(F)(F)F)cc3)nc2C)ccc1OCC(=O)O (stereo not shown)", 8.21],
  ["Cc1cc(SC(Cc2c(F)cccc2Cl)c2sc(-c3ccc(C(F)(F)F)c(F)c3)nc2C)ccc1OCC(=O)O (stereo not shown)", 8.41],
  ["Cc1cc(SC(Cc2ccc(F)cc2F)c2sc(-c3ccc(C(F)(F)F)cc3)nc2C)ccc1OCC(=O)O (stereo not shown)", 8.47]
]}

----------
Catalogue of compounds with associated CC50 at 24 h
# Experiment Description: MTT assay, cytotoxicity
# Type: cell-based
# Assay Setup: African green monkey, CV-1 cells, read-out: LC50 Cytotoxicity
# Procedure: The compounds of Examples 47-97 according to the present invention were tested for cytotoxicity using a MTT assay. […] If this substance is dissolved in dimethylsulfoxide and then measured for absorbance at 550 nm, cytotoxicity can be assayed. […] CV-1 cells were first inoculated onto a 96-well plate at a concentration of 5,000 cells/well. […] After 15 minutes of culture, the resulting purple crystal was dissolved in dimethylsulfoxide and then measured for absorbance using a microplate reader. […]
Quantity Measured: CC50 at 24 h

{"columns": ["Compound", "Reported Value"],
 "data": [
  ["Cc1cc(SC(Cc2ccc(C#N)cc2)c2sc(-c3ccc(C(F)(F)F)cc3)nc2C)ccc1OCC(=O)O (stereo not drawn)", "> 100 µM"],
  ["Cc1cc(SC(Cc2ccc(C(F)(F)F)cc2)c2sc(-c3ccc(C(F)(F)F)cc3)nc2C)ccc1OCC(=O)O (stereo not drawn)", "> 100 µM"],
  ["Cc1cc(SC(Cc2c(Cl)cccc2Cl)c2sc(-c3ccc(C(F)(F)F)c(F)c3)nc2C)ccc1OCC(=O)O (stereo not drawn)", "> 10 µM"],
  ["Cc1cc(SC(Cc2ccc(F)cc2F)c2sc(-c3ccc(C(F)(F)F)cc3)nc2C)ccc1OCC(=O)O (stereo not drawn)", "> 100 µM"],
  ["COc1cc(CC(Sc2ccc(OCC(=O)O)c(C)c2)c2sc(-c3ccc(C(F)(F)F)cc3)nc2C)cc(OC)c1 (stereo not drawn)", "> 100 µM"],
  ["Cc1cc(SC(CCCCCCCc2ccccc2)c2sc(-c3ccc(C(F)(F)F)cc3)nc2C)ccc1OCC(=O)O (stereo not drawn)", "94 µM"],
  ["Cc1cc(SC(Cc2ccc(F)cc2F)c2sc(-c3ccc(C(F)(F)F)c(F)c3)nc2C)ccc1OCC(=O)O (stereo not drawn)", "> 10 µM"],
  ["Cc1cc(SC(Cc2c(F)cccc2Cl)c2sc(-c3ccc(C(F)(F)F)cc3)nc2C)ccc1OCC(=O)O (stereo not drawn)", "> 100 µM"],
  ["Cc1cc(SC(Cc2c(F)cccc2C(F)(F)F)c2sc(-c3ccc(C(F)(F)F)c(F)c3)nc2C)ccc1OCC(=O)O (stereo not drawn)", "> 10 µM"],
  ["Cc1cc(SC(Cc2cc(F)c(F)c(F)c2)c2sc(-c3ccc(C(F)(F)F)c(F)c3)nc2C)ccc1OCC(=O)O (stereo not drawn)", "> 30 µM"],
  ["CCOC(=O)COc1ccc(SC(Cc2c(F)cccc2Cl)c2sc(-c3ccc(C(F)(F)F)cc3)nc2C)cc1C (stereo not drawn)", "> 100 µM"],
  ["Cc1cc(SC(Cc2c(F)cccc2F)c2sc(-c3ccc(C(F)(F)F)cc3)nc2C)ccc1OCC(=O)O (stereo not drawn)", "> 100 µM"],
  ["Cc1cc(SC(Cc2c(F)cccc2F)c2sc(-c3ccc(C(F)(F)F)c(F)c3)nc2C)ccc1OCC(=O)O (stereo not drawn)", "> 10 µM"],
  ["Cc1cc(SC(CCCCc2ccccc2)c2sc(-c3ccc(C(F)(F)F)cc3)nc2C)ccc1OCC(=O)O (stereo not drawn)", "93 µM"],
  ["Cc1cc(SC(CCCCCCCCCCc2ccccc2)c2sc(-c3ccc(C(F)(F)F)cc3)nc2C)ccc1OCC(=O)O (stereo not drawn)", "> 100 µM"]
]}

----------
# Tested System: PPARγ (Homo sapiens)
# Construct: full-length PPARs plasmid DNA
# Sequence (P37231 1-505): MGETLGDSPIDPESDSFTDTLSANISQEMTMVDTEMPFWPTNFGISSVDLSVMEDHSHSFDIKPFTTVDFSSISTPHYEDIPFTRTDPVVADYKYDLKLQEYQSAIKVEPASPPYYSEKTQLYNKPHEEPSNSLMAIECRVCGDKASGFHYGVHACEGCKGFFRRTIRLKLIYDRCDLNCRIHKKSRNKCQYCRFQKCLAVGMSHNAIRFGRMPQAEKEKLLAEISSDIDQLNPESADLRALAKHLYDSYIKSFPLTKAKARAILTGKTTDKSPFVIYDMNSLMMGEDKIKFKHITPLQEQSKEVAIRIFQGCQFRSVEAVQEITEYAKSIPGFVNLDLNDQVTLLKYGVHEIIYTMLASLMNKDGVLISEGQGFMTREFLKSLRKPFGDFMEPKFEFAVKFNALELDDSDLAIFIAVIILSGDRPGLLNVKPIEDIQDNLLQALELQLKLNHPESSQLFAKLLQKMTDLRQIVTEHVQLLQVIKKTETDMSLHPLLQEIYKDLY
# Experiment Description: Transfection assay (luciferase reporter) in CV-1 cells, PPARγ
# Assay Setup: full-length PPAR plasmid, luciferase normalized with β-galactosidase
pEC50: −log10 of the molar value.
Quantity Measured: pEC50

{"columns": ["Compound", "Tested System", "Reported Value"],
 "data": [
  ["Cc1cc(SC(Cc2c(F)cccc2F)c2sc(-c3ccc(C(F)(F)F)cc3)nc2C)ccc1OCC(=O)O (stereo not shown) [Example 83]", "PPARγ (Homo sapiens)", "< 5.00"]
]}

Cited source for all entries: patent US20090054493A1
